Collected inhibition values appear next to each entry.
ASSAY SYSTEM: Hepatocyte growth factor receptor (Homo sapiens) (UniProt P08581);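 note: reported values are means of MET inhibition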
Sequence (P08581 whole entry): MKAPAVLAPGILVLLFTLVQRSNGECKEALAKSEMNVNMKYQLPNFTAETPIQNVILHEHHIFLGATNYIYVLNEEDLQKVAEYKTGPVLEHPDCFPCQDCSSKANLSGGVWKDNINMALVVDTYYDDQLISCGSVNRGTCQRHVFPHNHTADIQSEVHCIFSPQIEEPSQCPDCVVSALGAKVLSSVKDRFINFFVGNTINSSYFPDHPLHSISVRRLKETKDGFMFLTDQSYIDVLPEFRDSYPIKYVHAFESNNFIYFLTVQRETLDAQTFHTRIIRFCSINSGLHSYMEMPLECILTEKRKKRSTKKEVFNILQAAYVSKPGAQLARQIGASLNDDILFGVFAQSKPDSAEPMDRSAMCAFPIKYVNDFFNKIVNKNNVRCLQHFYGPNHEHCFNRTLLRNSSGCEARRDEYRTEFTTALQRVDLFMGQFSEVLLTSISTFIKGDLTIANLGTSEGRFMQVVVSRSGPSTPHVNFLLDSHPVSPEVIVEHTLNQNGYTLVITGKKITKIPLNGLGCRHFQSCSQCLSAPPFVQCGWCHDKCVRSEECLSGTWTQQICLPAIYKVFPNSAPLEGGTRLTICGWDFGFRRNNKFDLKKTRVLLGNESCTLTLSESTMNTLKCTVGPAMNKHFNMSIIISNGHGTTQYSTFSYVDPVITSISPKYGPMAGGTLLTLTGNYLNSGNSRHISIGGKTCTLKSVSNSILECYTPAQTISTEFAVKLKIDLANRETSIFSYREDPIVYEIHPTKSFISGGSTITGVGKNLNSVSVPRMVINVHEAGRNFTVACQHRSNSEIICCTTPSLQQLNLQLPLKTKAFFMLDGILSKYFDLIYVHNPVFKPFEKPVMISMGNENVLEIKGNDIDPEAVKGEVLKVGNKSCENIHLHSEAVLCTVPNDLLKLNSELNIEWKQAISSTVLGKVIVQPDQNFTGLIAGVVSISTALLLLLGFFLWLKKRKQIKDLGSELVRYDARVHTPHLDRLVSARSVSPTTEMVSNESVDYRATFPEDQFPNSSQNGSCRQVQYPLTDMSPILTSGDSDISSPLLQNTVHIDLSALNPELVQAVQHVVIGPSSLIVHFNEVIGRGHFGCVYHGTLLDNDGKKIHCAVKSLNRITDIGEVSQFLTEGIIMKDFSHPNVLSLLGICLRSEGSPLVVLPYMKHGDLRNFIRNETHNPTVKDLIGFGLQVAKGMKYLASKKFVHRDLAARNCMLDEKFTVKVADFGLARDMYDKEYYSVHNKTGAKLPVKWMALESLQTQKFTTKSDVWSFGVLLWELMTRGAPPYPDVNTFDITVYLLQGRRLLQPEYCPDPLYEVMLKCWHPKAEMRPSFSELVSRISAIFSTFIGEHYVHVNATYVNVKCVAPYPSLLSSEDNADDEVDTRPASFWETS
RUN CONDITIONS: at 0.1 µM
EXPERIMENTAL ENDPOINT: inhibition (%)

entry_smiles=CN1CCN(CCCNc2nc3ccc(Oc4ccc(NC(=O)Nc5cc(C(F)(F)F)ccc5F)cc4)cc3[nH]2)CC1 units=% measured=5.66
entry_smiles=CN(C)CCOc1ccc(-c2cc(-c3ccc4c(c3)CCC4=NO)c(-c3ccncc3)o2)cc1 units=% measured=12.9
entry_smiles=O=C(NCC1CC1)c1ccc(-c2cccc(C(=O)NC3CC3)c2)cc1 units=% measured=5.94
entry_smiles=C/C(Nc1ccc(S(N)(=O)=O)cc1)=C1/C(=O)Nc2ccccc21 units=% measured=3.68
entry_smiles=COc1cc2ncn(-c3cc(OCc4ccccc4C(F)(F)F)c(C(C)=O)s3)c2cc1OC units=% measured=1.74
entry_smiles=COc1ccc(-c2ccc3c(NC(=O)C4CC4)n[nH]c3n2)cc1 units=% measured=1.87
entry_smiles=COc1cc2ncn(-c3cc(OCc4cccs4)c(C(N)=O)s3)c2cc1OC units=% measured=8.19
entry_smiles=COc1ccc2ncn(-c3cc(O[C@H](C)c4ccccc4Cl)c(C(N)=O)s3)c2c1 units=% measured=4.37
entry_smiles=COc1cc(Nc2ncc(-c3ccccc3)o2)cc(OC)c1OC units=% measured=2.19
entry_smiles=O=C(Nc1n[nH]c2cc(-c3cc(F)ccc3F)ccc12)C1CC1 units=% measured=6.12
entry_smiles=c1ccc(Oc2ccc(Nc3ncc(-c4ccccc4)o3)cc2)cc1 units=% measured=1.79
entry_smiles=O=C(Nc1ccc(Oc2ccc3[nH]c(NC(=O)c4ccccc4)nc3c2)cc1)Nc1cc(C(F)(F)F)ccc1F units=% measured=4.39
entry_smiles=Fc1ccc(-c2ncn(C3CCNCC3)c2-c2ccnc(Oc3ccc(Oc4ccccc4)cc3)n2)cc1 units=% measured=9.38
entry_smiles=COc1ccc(C2=C(N3CCc4ccccc43)C(=O)NC2=O)cc1 units=% measured=6.5
entry_smiles=Fc1ccc(-c2ncn(C3CCNCC3)c2-c2ccnc(Oc3ccc(F)c(F)c3)n2)cc1 units=% measured=7.87
entry_smiles=Clc1ccc(CNc2nccc(-c3cnn4ncccc34)n2)cc1 units=% measured=2.02
entry_smiles=O=C(Nc1n[nH]c2nc(-c3ccco3)ccc12)C1CC1 units=% measured=4.66
entry_smiles=c1ccc(-c2n[nH]cc2-c2ccnc(-c3ccc(OCCN4CCOCC4)cc3)c2)nc1 units=% measured=7.49
entry_smiles=COc1cc(N2CCN(C(C)C)CC2)ccc1Nc1nc(Nc2ccc(F)cc2C(=O)NC[C@@H](O)CO)c2cc[nH]c2n1 units=% measured=-1.77
entry_smiles=Cc1ccc(C(=O)NC2CCC2)cc1-c1ccc(C(=O)NCC2CC2)cc1 units=% measured=3.95
entry_smiles=CCS(=O)(=O)c1ccc(OC)c(Nc2ncc(-c3cccc(-c4ccccc4F)c3)o2)c1 units=% measured=2.87
entry_smiles=Fc1ccc(-c2c(-c3ccncc3)nc3n2CCS3)cc1 units=% measured=3.45
